- subject.of.test: hFASN enzyme (full length) (Homo sapiens)
- Sequence (P49327 whole entry): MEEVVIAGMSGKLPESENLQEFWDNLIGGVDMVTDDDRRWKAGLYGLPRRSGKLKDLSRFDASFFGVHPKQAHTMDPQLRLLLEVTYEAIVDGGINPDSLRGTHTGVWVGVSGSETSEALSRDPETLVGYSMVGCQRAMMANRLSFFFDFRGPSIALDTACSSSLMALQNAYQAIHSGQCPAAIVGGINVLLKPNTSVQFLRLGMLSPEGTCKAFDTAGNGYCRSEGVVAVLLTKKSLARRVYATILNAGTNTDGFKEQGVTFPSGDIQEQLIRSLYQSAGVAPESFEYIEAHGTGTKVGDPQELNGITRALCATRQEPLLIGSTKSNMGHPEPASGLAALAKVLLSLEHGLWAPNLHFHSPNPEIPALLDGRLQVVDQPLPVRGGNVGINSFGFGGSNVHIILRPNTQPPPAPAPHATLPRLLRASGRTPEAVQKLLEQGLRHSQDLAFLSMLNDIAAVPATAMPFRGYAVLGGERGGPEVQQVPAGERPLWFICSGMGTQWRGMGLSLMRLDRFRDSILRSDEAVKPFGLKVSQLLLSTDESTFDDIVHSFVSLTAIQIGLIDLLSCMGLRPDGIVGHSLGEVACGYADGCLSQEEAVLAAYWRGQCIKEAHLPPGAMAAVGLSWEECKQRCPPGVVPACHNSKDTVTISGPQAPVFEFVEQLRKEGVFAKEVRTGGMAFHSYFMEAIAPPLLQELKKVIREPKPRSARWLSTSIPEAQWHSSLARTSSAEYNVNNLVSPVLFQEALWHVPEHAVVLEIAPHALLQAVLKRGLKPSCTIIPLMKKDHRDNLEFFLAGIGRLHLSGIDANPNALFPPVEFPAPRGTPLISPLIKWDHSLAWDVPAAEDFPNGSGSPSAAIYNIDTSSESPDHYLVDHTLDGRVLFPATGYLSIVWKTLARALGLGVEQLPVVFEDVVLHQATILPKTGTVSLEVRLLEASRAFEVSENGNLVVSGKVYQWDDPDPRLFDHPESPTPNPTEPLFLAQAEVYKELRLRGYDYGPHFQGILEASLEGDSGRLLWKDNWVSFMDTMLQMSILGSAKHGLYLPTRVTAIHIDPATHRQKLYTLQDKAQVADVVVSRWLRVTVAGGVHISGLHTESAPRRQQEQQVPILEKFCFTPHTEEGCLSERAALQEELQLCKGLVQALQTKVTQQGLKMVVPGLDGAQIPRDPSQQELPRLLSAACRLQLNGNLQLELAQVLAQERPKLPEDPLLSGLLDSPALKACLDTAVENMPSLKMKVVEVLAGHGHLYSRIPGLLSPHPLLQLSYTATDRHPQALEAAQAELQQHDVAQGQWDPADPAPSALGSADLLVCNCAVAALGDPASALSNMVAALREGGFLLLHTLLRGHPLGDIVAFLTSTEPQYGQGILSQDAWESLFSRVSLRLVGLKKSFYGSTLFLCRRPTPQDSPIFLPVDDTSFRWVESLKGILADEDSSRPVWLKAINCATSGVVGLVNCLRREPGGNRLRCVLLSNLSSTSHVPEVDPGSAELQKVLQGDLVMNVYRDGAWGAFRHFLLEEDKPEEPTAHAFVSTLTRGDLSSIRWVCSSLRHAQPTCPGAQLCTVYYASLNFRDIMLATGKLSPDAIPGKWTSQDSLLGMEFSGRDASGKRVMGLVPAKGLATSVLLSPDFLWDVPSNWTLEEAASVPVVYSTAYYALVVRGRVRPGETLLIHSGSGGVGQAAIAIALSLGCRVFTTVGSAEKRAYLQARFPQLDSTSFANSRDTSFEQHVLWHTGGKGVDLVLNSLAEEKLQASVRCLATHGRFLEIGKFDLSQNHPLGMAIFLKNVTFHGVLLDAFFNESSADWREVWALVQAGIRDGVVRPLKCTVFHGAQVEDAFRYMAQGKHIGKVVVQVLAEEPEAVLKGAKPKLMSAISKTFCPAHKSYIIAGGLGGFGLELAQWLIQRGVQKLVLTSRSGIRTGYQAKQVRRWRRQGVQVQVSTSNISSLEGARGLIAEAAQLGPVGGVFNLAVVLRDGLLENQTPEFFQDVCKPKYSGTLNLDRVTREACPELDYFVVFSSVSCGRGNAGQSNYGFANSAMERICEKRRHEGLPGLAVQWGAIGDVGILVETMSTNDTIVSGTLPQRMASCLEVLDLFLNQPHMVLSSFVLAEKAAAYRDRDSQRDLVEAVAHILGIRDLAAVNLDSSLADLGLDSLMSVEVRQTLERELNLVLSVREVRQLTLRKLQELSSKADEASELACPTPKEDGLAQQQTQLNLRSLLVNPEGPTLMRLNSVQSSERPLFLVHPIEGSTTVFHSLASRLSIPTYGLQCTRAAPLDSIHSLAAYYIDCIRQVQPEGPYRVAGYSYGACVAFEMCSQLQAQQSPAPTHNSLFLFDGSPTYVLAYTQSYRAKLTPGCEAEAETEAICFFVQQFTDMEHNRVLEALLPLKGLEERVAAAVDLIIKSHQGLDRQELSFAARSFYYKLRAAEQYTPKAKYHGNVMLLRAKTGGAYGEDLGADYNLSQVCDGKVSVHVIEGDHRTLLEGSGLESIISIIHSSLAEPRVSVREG
Just a reminder that ties go to NOT MET: only IC50 strictly below 60 nM counts as MET.

Completed entries (count: 2):
CC(C)Nc1ccc(C(=O)Nc2cc(C(=O)N3CCC(c4ccc(-c5ccncc5)cc4)CC3)ccc2Cl)cn1 [Compound 72]: MET
CCCCCN1CC(C(=O)Nc2cc(C(=O)N3CCC(c4ccc(-c5cnn(C)c5)cc4)CC3)ccc2C)C1 [Compound 214]: NOT MET

Next, consider the following compound.
Inquiry: # TODO verify IC50 < 60 nM strictly for this compound: Cc1ccc(C(=O)N2CC(c3ccc(-c4cccnc4N)cc3)C2)cc1NC(=O)c1ccc(Cl)nc1 [Compound 259]
Reply text: MET
